Just for reference, ChEMBL document CHEMBL1136677 is where these values come from.

# test.system: Delta-type opioid receptor (Mus musculus)
# assay.conditions: Vas deferens
# Description: Affinity towards delta opioid receptor using N,N(Me)2Dmt-Tic-OH as antagonist in mouse vas deferens
What Ke was measured for each of the following?

Some solved cases for reference:
Cc1cccc(C)c1C[C@H](NC(=O)[C@@H](CCCN=C(N)N)NC(=O)[C@@H](N)Cc1ccc(O)cc1)C(=O)NCCC(N)=O    > 1000 nM
CC(C)[C@H](NC(=O)[C@H](CCC(=O)O)NC(=O)[C@H](Cc1ccccc1)NC(=O)[C@H](C)NC(=O)[C@@H](N)Cc1ccc(O)cc1)C(=O)N[C@H](C(=O)NCC(=O)O)C(C)C    0.64 nM
Cc1cccc(C)c1C[C@H](N)C(=O)N[C@H](CCCN=C(N)N)C(=O)N[C@@H](Cc1ccccc1)C(=O)NCCC(N)=O    > 1000 nM

Could you report Ke for every entry in the following list?
1. NC(=O)CCNC(=O)[C@H](Cc1ccccc1)NC(=O)[C@@H](CCCN=C(N)N)NC(=O)[C@@H](N)Cc1ccc(O)cc1
2. Cc1cccc(C)c1C[C@H](NC(=O)[C@@H](CCCN=C(N)N)NC(=O)[C@@H](N)Cc1c(C)cccc1C)C(=O)NCCC(N)=O

RESULT:
1: > 1000 nM; 2: > 1000 nM

* * *

# test.system: Mu-type opioid receptor (Cavia porcellus)
# Sequence (P97266 whole entry): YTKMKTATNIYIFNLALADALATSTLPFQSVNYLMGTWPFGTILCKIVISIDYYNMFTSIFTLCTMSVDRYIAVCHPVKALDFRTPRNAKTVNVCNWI
# assay.summary: Ability to inhibit electrically induced contractions of guinea pig ileum having mu opioid receptors tested in vitro
assay.readout: IC50 (nM)
Give bare numbers, in nM.

Look over these answered cases.
NC(=O)CCNC(=O)[C@H](Cc1ccccc1)NC(=O)[C@@H](CCCN=C(N)N)NC(=O)[C@@H](N)Cc1ccccc1    633
Cc1cc(O)cc(C)c1C[C@H](N)C(=O)N[C@H](CCCN=C(N)N)C(=O)N[C@@H](Cc1ccccc1)C(=O)NCCC(N)=O    0.034
Cc1cccc(C)c1C[C@H](N)C(=O)N[C@H](CCCN=C(N)N)C(=O)N[C@@H](Cc1ccccc1)C(=O)NCCC(N)=O    9.88

Let's switch to this compound now.
QUERY: // fetch IC50 given entry Cc1cccc(C)c1C[C@@H](N)C(=O)N[C@H](CCCNC(=N)N)C(=O)N[C@@H](Cc1ccccc1)C(=O)NCCC(N)=O
RESULT: 320

* * *

Mu-type opioid receptor (Rattus norvegicus, UniProt P33535) data, read-out Ki
Sequence (P33535 whole entry): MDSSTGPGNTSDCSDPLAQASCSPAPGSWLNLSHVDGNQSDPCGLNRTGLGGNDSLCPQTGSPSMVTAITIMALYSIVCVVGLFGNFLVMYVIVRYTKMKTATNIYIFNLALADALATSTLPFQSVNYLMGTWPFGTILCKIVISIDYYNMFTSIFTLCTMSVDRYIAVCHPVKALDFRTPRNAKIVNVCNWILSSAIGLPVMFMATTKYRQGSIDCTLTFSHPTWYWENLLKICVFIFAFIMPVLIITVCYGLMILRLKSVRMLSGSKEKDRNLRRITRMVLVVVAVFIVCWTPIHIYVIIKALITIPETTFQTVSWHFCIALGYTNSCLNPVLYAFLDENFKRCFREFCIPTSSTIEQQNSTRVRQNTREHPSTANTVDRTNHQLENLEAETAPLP
Numbers only, in nM.

Required: Ki, one value per molecule below.
1. NC(=O)CCNC(=O)[C@H](Cc1ccccc1)NC(=O)[C@@H](CCCN=C(N)N)NC(=O)[C@@H](N)Cc1ccccc1
2. N=C(N)NCCC[C@@H](NC(=O)[C@@H](N)Cc1ccc(O)cc1)C(=O)N[C@@H](Cc1ccccc1)C(=O)NCCC(N)=O
3. Cc1cccc(C)c1C[C@H](N)C(=O)N[C@H](CCCN=C(N)N)C(=O)N[C@@H](Cc1ccccc1)C(=O)NCCC(N)=O
4. Cc1cccc(C)c1C[C@H](NC(=O)[C@@H](CCCN=C(N)N)NC(=O)[C@@H](N)Cc1c(C)cccc1C)C(=O)NCCC(N)=O

RESULT:
7.17
0.172
0.0623
0.0216

* * *

# test.system: Delta-type opioid receptor (Rattus norvegicus, UniProt P33533)
# Sequence (P33533 whole entry): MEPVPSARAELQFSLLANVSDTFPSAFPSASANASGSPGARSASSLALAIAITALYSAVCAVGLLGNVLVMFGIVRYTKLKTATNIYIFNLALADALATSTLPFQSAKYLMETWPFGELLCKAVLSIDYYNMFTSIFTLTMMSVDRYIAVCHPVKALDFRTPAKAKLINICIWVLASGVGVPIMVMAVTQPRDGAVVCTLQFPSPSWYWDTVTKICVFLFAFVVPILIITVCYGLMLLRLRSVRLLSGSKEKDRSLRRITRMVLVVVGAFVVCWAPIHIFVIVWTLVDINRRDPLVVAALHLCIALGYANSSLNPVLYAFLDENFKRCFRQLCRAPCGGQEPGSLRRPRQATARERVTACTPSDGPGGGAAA
# assay.summary: Ability to displace [3H]-deltorphin II from delta opioid receptor
I'd appreciate it if you could supply Ki values for the items below.

Below, 2 molecules whose answers are already recorded.
Cc1cccc(C)c1C[C@@H](NC(=O)[C@@H](CCCN=C(N)N)NC(=O)[C@@H](N)Cc1ccc(O)cc1)C(=O)NCCC(N)=O    > 2820 nM
Cc1cccc(C)c1C[C@@H](N)C(=O)N[C@H](CCCNC(=N)N)C(=O)N[C@@H](Cc1ccccc1)C(=O)NCCC(N)=O    > 2820 nM

QUERY: Identify the reported Ki for the following entry. NC(=O)CCNC(=O)[C@H](Cc1ccccc1)NC(=O)[C@@H](CCCN=C(N)N)NC(=O)[C@@H](N)Cc1ccccc1
RESULT: > 2820 nM
